Each entry below carries its reported melting point.

Would you please look over these solved cases?
>  <compound>
CCc1c(CC)n(Cc2ccccc2Cl)c2cc(C(=O)OC)ccc12

>  <experimentalValue>
86 to 88 °C

$$$$
>  <compound>
COc1ccc2c(c1)CCN2c1cccc(C#N)c1

>  <experimentalValue>
92.5 to 93.5 °C

$$$$
>  <compound>
O=CNC(CC(=O)O)c1ccccc1 (stereo not given)

>  <experimentalValue>
135 to 136 °C

$$$$
>  <compound>
O=C1N(Cc2nc(C(F)(F)F)cs2)c2ccccc2C12COc1cc3c(cc12)OCCO3 (stereo not given)

>  <experimentalValue>
169 to 170 °C

$$$$

// below: melting point requested for another compound
Input: Please look at this compound and report its melting point: [N-]=[N+]=NCC(O)(Cn1cncn1)c1ccc(Cl)cc1Cl (stereo not given)
Output: 117 to 119 °C

Values were extracted from a melting point compilation (Tetko et al.; mined from patent text by program, amines drawn as free bases though some values may be those of a salt).
